Cited source: paper PMC5540273

- System: MAPKAPK5;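 note: KINOMEscan kinase panel screen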
- TEST_CONDITIONS: concentration: 1 μM,replicates: in singlicate; n = 1
MEASUREMENT_KIND: %Inh (%)
Write the value in % as a bare number.

The cases that follow already have their %Inh on record.
INSERT INTO results (entry_smiles, output_unit, reported_measurement) VALUES
  ('Cl.Oc1cc(-c2nc(-c3ccccc3)[nH]c2-c2ccncc2)ccc1Cl', '%', 0),
  ('CNC(=O)c1ccccc1Sc1ccc2c(/C=C/c3ccccn3)n[nH]c2c1', '%', 0),
  ('O=C(NCCCN1CCOC1=O)c1cnc(NCc2cc(Cl)ccc2Cl)nc1NC1CCCC1', '%', 0);

Then there is this compound:
Q) Give MAPKAPK5 %Inh for C[C@@H](Oc1cc(-c2cnn(C3CCNCC3)c2)cnc1N)c1c(Cl)ccc(F)c1Cl
A) 8
